# credit: patent US6376497B1

# Test system: Candida albicans IFO. 1385
# Procedure Text: In vitro antifungal activity, microbroth dilution MIC
# Type: cell-based
# Condition Info: RPMI-1640, 35° C., 4 to 48 hours, no growth observed
Measurement Label: Minimal inhibitory concentration(MIC), C. albicans IFO. 1385 (µg/mL)

>  <Compound>
FC(OCC1COC(Cn2cncn2)(c2ccc(Cl)cc2Cl)O1)=C(c1ccccc1)C(F)(F)F (mixture of isomers)

>  <Target Of Assay>
Candida albicans IFO. 1385

>  <Limit Sign>
>

>  <Measurement>
100

$$$$
>  <Compound>
FC(OCC1COC(Cn2cncn2)(c2ccc(Cl)cc2Cl)O1)=C(c1ccc(F)cc1)C(F)(F)F (mixture of isomers)

>  <Target Of Assay>
Candida albicans IFO. 1385

>  <Limit Sign>
=

>  <Measurement>
6.25

$$$$
>  <Compound>
Cc1cccc(C(=C(F)N2CCN(c3ccc(OCC4COC(Cn5ccnc5)(c5ccc(F)cc5F)O4)cc3)CC2)C(F)(F)F)c1 (mixture of isomers)

>  <Target Of Assay>
Candida albicans IFO. 1385

>  <Limit Sign>
=

>  <Measurement>
0.78

$$$$
>  <Compound>
FC(=Cc1ccccc1)Oc1ccc(OCC2COC(Cn3ccnc3)(c3ccc(Cl)cc3Cl)O2)cc1 (mixture of isomers)

>  <Target Of Assay>
Candida albicans IFO. 1385

>  <Limit Sign>
=

>  <Measurement>
6.25

$$$$
>  <Compound>
FC(=Cc1ccc(F)cc1)OCC1COC(Cn2cncn2)(c2ccc(Cl)cc2Cl)O1 (mixture of isomers)

>  <Target Of Assay>
Candida albicans IFO. 1385

>  <Limit Sign>
=

>  <Measurement>
25.0

$$$$
>  <Compound>
FC(Oc1ccc(OCC2COC(Cn3ccnc3)(c3ccc(Cl)cc3Cl)O2)cc1)=C(c1ccc(Oc2ccccc2)cc1)C(F)(F)F (mixture of isomers)

>  <Target Of Assay>
Candida albicans IFO. 1385

>  <Limit Sign>
=

>  <Measurement>
6.25

$$$$
>  <Compound>
FC(Oc1ccc(OCC2COC(Cn3ccnc3)(c3ccc(Cl)cc3Cl)O2)cc1)=C(c1ccccc1)C(F)(F)F (mixture of isomers)

>  <Target Of Assay>
Candida albicans IFO. 1385

>  <Limit Sign>
=

>  <Measurement>
6.25

$$$$
>  <Compound>
COc1cccc(C(=C(F)N2CCN(c3ccc(OCC4COC(Cn5ccnc5)(c5ccc(F)cc5F)O4)cc3)CC2)C(F)(F)F)c1 (mixture of isomers)

>  <Target Of Assay>
Candida albicans IFO. 1385

>  <Limit Sign>
=

>  <Measurement>
0.39

$$$$
>  <Compound>
Cc1ccc(C(=C(F)OCC2COC(Cn3cncn3)(c3ccc(Cl)cc3Cl)O2)C(F)(F)F)cc1C (mixture of isomers)

>  <Target Of Assay>
Candida albicans IFO. 1385

>  <Limit Sign>
=

>  <Measurement>
12.5

$$$$
>  <Compound>
FC(Oc1ccc(OCC2COC(Cn3ccnc3)(c3ccc(F)cc3F)O2)cc1)=C(c1cccc(F)c1)C(F)(F)F (mixture of isomers)

>  <Target Of Assay>
Candida albicans IFO. 1385

>  <Limit Sign>
=

>  <Measurement>
1.56

$$$$
>  <Compound>
Cc1cc(C)cc(C=C(F)OCC2COC(Cn3cncn3)(c3ccc(Cl)cc3Cl)O2)c1 (mixture of isomers)

>  <Target Of Assay>
Candida albicans IFO. 1385

>  <Limit Sign>
=

>  <Measurement>
12.5

$$$$
>  <Compound>
FC(Oc1ccc(OCC2COC(Cn3ccnc3)(c3ccc(Cl)cc3Cl)O2)cc1)=C(c1ccc(C(F)(F)F)cc1)C(F)(F)F (mixture of isomers)

>  <Target Of Assay>
Candida albicans IFO. 1385

>  <Limit Sign>
=

>  <Measurement>
3.13

$$$$
>  <Compound>
FC(=Cc1cccc(Cl)c1)Oc1ccc(OCC2COC(Cn3ccnc3)(c3ccc(Cl)cc3Cl)O2)cc1 (mixture of isomers)

>  <Target Of Assay>
Candida albicans IFO. 1385

>  <Limit Sign>
=

>  <Measurement>
6.25

$$$$
>  <Compound>
FC(OCC1COC(Cn2cncn2)(c2ccc(Cl)cc2Cl)O1)=C(c1ccc(Cl)cc1)C(F)(F)F (mixture of isomers)

>  <Target Of Assay>
Candida albicans IFO. 1385

>  <Limit Sign>
=

>  <Measurement>
12.5

$$$$
>  <Compound>
COc1cccc(C=C(F)Oc2ccc(OCC3COC(Cn4ccnc4)(c4ccc(Cl)cc4Cl)O3)cc2)c1 (mixture of isomers)

>  <Target Of Assay>
Candida albicans IFO. 1385

>  <Limit Sign>
=

>  <Measurement>
12.5

$$$$
>  <Compound>
Cc1ccc(C=C(F)Oc2ccc(OCC3COC(Cn4ccnc4)(c4ccc(Cl)cc4Cl)O3)cc2)cc1 (mixture of isomers)

>  <Target Of Assay>
Candida albicans IFO. 1385

>  <Limit Sign>
=

>  <Measurement>
25.0

$$$$
>  <Compound>
CCc1ccc(C(=C(F)Oc2ccc(OCC3COC(Cn4ccnc4)(c4ccc(F)cc4F)O3)cc2)C(F)(F)F)cc1 (mixture of isomers)

>  <Target Of Assay>
Candida albicans IFO. 1385

>  <Limit Sign>
=

>  <Measurement>
6.25

$$$$
>  <Compound>
FC(=C(c1ccc(F)cc1)C(F)(F)F)N1CCN(c2ccc(OCC3COC(Cn4ccnc4)(c4ccc(Cl)cc4Cl)O3)cc2)CC1 (mixture of isomers)

>  <Target Of Assay>
Candida albicans IFO. 1385

>  <Limit Sign>
=

>  <Measurement>
1.56

$$$$
>  <Compound>
FC(Oc1ccc(OCC2COC(Cn3cncn3)(c3ccc(Cl)cc3Cl)O2)cc1)=C(c1ccc(Cl)cc1)C(F)(F)F (mixture of isomers)

>  <Target Of Assay>
Candida albicans IFO. 1385

>  <Limit Sign>
=

>  <Measurement>
0.78

$$$$
>  <Compound>
FC(Oc1ccc(OCC2COC(Cn3ccnc3)(c3ccc(F)cc3F)O2)cc1)=C(c1ccc(Oc2ccccc2)cc1)C(F)(F)F (mixture of isomers)

>  <Target Of Assay>
Candida albicans IFO. 1385

>  <Limit Sign>
=

>  <Measurement>
3.13

$$$$
>  <Compound>
COc1ccc(C=C(F)OCC2COC(Cn3cncn3)(c3ccc(Cl)cc3Cl)O2)cc1 (mixture of isomers)

>  <Target Of Assay>
Candida albicans IFO. 1385

>  <Limit Sign>
=

>  <Measurement>
12.5

$$$$
>  <Compound>
FC(Oc1ccc(OCC2COC(Cn3ccnc3)(c3ccc(F)cc3F)O2)cc1)=C(c1cccc(Cl)c1)C(F)(F)F (mixture of isomers)

>  <Target Of Assay>
Candida albicans IFO. 1385

>  <Limit Sign>
=

>  <Measurement>
1.56

$$$$
>  <Compound>
FC(Oc1ccc(OCC2COC(Cn3ccnc3)(c3ccc(F)cc3F)O2)cc1)=C(c1ccccc1)C(F)(F)F (mixture of isomers)

>  <Target Of Assay>
Candida albicans IFO. 1385

>  <Limit Sign>
=

>  <Measurement>
1.56

$$$$
>  <Compound>
Cc1ccc(C(=C(F)Oc2ccc(OCC3COC(Cn4ccnc4)(c4ccc(Cl)cc4Cl)O3)cc2)C(F)(F)F)cc1 (mixture of isomers)

>  <Target Of Assay>
Candida albicans IFO. 1385

>  <Limit Sign>
=

>  <Measurement>
3.13

$$$$
>  <Compound>
CCc1ccc(C(=C(F)Oc2ccc(OCC3COC(Cn4ccnc4)(c4ccc(Cl)cc4Cl)O3)cc2)C(F)(F)F)cc1 (mixture of isomers)

>  <Target Of Assay>
Candida albicans IFO. 1385

>  <Limit Sign>
=

>  <Measurement>
6.25

$$$$
